Below, each entry is listed alongside its reported furin cleavage Z-score.
Target: furin, P09958;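 further: purified furin at 1:10 enzyme:substrate in 50 mM HEPES pH 7.5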
Sequence (P09958 whole entry): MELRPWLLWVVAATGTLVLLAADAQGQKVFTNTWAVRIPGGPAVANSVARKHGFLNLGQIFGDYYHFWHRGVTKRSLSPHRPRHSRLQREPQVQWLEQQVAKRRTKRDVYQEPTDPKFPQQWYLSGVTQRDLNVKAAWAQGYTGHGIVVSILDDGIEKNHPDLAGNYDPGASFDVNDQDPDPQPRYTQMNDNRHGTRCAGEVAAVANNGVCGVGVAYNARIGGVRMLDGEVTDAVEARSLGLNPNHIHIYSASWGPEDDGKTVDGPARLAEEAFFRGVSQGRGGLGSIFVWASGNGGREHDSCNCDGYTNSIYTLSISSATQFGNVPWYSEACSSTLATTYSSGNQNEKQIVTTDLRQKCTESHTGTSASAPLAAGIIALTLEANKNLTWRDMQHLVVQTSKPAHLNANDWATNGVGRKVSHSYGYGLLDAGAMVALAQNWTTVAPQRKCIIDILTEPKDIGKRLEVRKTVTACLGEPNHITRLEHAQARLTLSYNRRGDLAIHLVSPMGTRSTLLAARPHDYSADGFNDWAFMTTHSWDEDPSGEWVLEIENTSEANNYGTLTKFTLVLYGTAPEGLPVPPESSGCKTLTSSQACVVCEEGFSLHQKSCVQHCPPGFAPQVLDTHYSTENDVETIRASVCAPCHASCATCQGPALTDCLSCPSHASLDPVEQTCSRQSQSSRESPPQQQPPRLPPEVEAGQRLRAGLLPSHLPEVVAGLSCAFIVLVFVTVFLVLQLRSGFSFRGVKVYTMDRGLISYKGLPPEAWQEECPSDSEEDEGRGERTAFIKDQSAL
Experiment: furin cleavage Z-score vs untreated control; higher = more cleavage, active = 3.5 or more, inactive = 1 or less, 8 variable residues between constant flanks
Conditions: 30 min
The other results are listed elsewhere or left out. The true hit rate is not given.
Lab note: write the figure by itself, no unit.

Example entries begin here.
CAGLYHVTNDAGNASASA [HC260]    -0.664
CADTMEECSQAGNASASA [HC1818]    -0.384
CAEYEVPCHRAGNASASA [HC2449]    -0.958
CAIERVHKRSAGNASASA [FS-1342]    7.96
CAGACYSIEPAGNASASA [HC1595]    -1.27

## Input Consider the sequence CAGDPPQPEYAGNASASA [HC1546] and give its measured furin cleavage Z-score.
## Output 0.347

## Input // same read-out, input: CASDDRLCRSAGNASASA [FS-1484]
## Output -1
